System: PrP-5′UTR (prion protein IRE)
Type: cell-based, human
Conditions: Table 3; versus SNCA 5′UTR
property: Selectivity PrP-5′UTR

Known Selectivity PrP-5′UTR results, listed for orientation:
* Cc1cc(C)cc(Nc2nc3ccc(C)cc3n3cnnc23)c1 | 18-fold
* COc1ccc(N(CC(=O)Nc2cc(Cl)ccc2OC)S(=O)(=O)c2c(C)noc2C)cc1 | 18-fold
* CN(C)c1nc(N)nc(CSc2nnnn2-c2cccc3ccccc23)n1 | 35-fold
* COC(=O)C1CC23C=CCN4CCC5(c6ccccc6NC15C2C)C43 (stereo not drawn) | 17-fold
* O=C(c1ccc(C[S+]([O-])c2ccccc2Cl)o1)N1CCN(c2ccccc2)CC1 (stereo not drawn) | Inc.

// lookup Selectivity PrP-5′UTR for COc1cccc(N2CCN(C(=O)c3ccc(C[S+]([O-])c4ccc(C)cc4)o3)CC2)c1 (stereo not drawn) 126-fold

Can you look up the measured Selectivity PrP-5′UTR of `COc1ccc(/C=C/C(=O)c2cc(F)ccc2OC(=O)c2ccccc2)cc1OC` for me? Inc.

So what's the measured Selectivity PrP-5′UTR for this one? `CCC1=Nc2cc(C(=O)NCCCOC)ccc2Sc2ccccc21` 127-fold

I would be grateful if you could share the reported Selectivity PrP-5′UTR for `CCOC(=O)c1[nH]c(C)c(C(=O)c2cc(F)ccc2F)c1C` . 58-fold
